This listing pairs compounds with measured residual activity.
# SUBJECT_OF_TEST: HIPK1 (human)
# ASSAY_EXPLANATION: radiometric filter-binding kinase assay, Kinase HotSpot
# COND: compound 0.5 µM; ATP 10 µM
Supply the numeric figure in %, leaving out any unit text.

{"COMPOUND": "Nc1n[nH]c2nnc(-c3c(-c4ccccc4)nn4ccccc34)cc12", "UNIT_ABBREV": "%", "residual activity": 99.7}
{"COMPOUND": "CC(C)n1cnc2c(Nc3cccc(Cl)c3)nc(NCCO)nc21", "UNIT_ABBREV": "%", "residual activity": 99.8}
{"COMPOUND": "CC(C)(C)c1nc2c3ccc(F)cc3c3c(=O)[nH]ccc3c2[nH]1", "UNIT_ABBREV": "%", "residual activity": 88.7}
{"COMPOUND": "COc1ccc(-c2cnc3c(-c4ccsc4)cnn3c2)cc1", "UNIT_ABBREV": "%", "residual activity": 99.8}
{"COMPOUND": "CCCNC(=O)Nc1ccc(Oc2ncnc3cc(OC)c(OC)cc23)cc1Cl", "UNIT_ABBREV": "%", "residual activity": 96.8}

Item under review: CC(C)[C@H](CO)Nc1nc(Nc2cccc(Cl)c2)c2ncn(C(C)C)c2n1 . Reported residual activity?
103

Item under review: CSc1nc(-c2ccc(F)cc2)c(-c2ccnc(NC(C)c3ccccc3)c2)[nH]1 (configuration not stated) . Reported residual activity?
110

Item under review: COc1cc2ncnc(Nc3ccc(F)c(Cl)c3)c2cc1OCCCN1CCOCC1 . Reported residual activity?
97.6

----------
This listing pairs molecules with measured residual activity.
# SUBJECT_OF_TEST: UniProtKB Q12851
# Sequence (Q12851 whole entry, looked up): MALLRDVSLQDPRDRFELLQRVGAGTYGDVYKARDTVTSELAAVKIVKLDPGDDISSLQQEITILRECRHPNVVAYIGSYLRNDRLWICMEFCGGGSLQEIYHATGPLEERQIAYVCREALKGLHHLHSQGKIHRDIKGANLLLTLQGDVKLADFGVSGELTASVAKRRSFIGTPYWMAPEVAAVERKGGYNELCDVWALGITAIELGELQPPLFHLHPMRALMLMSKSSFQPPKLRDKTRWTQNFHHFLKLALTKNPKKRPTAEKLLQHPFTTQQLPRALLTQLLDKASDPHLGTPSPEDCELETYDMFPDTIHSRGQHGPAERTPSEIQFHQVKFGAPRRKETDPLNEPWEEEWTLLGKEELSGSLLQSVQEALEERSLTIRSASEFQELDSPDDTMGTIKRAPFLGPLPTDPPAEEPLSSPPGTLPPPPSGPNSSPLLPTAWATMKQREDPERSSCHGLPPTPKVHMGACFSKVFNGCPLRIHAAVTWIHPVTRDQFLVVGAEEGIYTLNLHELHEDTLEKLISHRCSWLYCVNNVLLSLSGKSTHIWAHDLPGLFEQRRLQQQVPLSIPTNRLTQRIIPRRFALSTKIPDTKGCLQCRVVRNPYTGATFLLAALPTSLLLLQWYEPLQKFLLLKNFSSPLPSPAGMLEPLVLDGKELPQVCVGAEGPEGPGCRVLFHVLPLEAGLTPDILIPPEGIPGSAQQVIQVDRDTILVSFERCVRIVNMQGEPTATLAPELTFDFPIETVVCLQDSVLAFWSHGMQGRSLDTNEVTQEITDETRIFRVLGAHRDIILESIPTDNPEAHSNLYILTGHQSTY
# ASSAY_EXPLANATION: radiometric filter-binding kinase assay, Kinase HotSpot
# COND: compound 0.5 µM; ATP 10 µM
Supply the numeric figure in %, leaving out any unit text.

Reference set, count: 4
{"MOLECULE": "CCCNC(=O)Nc1ccc(Oc2ncnc3cc(OC)c(OC)cc23)cc1Cl", "OBSERVABLE": "residual activity", "VALUE_OBSERVED": 83.1}
{"MOLECULE": "O=C1Nc2ccccc2/C1=C\\c1c(Cl)[nH]c2ccccc12", "OBSERVABLE": "residual activity", "VALUE_OBSERVED": 97.9}
{"MOLECULE": "CC(C)[C@H](CO)Nc1nc(Nc2cccc(Cl)c2)c2ncn(C(C)C)c2n1", "OBSERVABLE": "residual activity", "VALUE_OBSERVED": 97.6}
{"MOLECULE": "COc1cc2nccc(Oc3ccc(NC(=S)NC(=O)c4ccccc4C)cc3)c2cc1OC", "OBSERVABLE": "residual activity", "VALUE_OBSERVED": 92.9}

Lab note: need residual activity for C#Cc1cccc(Nc2ncnc3cc(OCCOC)c(OCCOC)cc23)c1 on UniProtKB Q12851, anyone have it?
105

Lab note: need residual activity for Nc1nc(Nc2ccc(S(N)(=O)=O)cc2)nn1C(=O)c1c(F)cccc1F on UniProtKB Q12851, anyone have it?
58.4

Lab note: need residual activity for O=C1Nc2cc(Br)ccc2/C1=C1/Nc2ccccc2/C1=N\O on UniProtKB Q12851, anyone have it?
61.5

Lab note: need residual activity for Oc1ccc(-c2nc(-c3ccc(F)cc3)c(-c3ccncc3)[nH]2)cc1 on UniProtKB Q12851, anyone have it?
101

Lab note: need residual activity for CSc1nc(-c2ccc(F)cc2)c(-c2ccnc(NC(C)c3ccccc3)c2)[nH]1 (configuration not stated) on UniProtKB Q12851, anyone have it?
82.5

Lab note: need residual activity for CCN1/C(=C/C(C)=O)Sc2ccc(OC)cc21 on UniProtKB Q12851, anyone have it?
105

Lab note: need residual activity for Clc1ccc(Nc2nnc(Cc3ccncc3)c3ccccc23)cc1 on UniProtKB Q12851, anyone have it?
107
